- System: EKVX NSCLC
- Protocol Notes: NCI-60 one-dose screen, 48 h (100 = growth as untreated, 0 = no growth, -100 = all killed)
- Measurement Setup: 10 µM unless noted
This is part of a sample that, as a whole, favours compounds with a hit. Of some 83,000 tested, about 20% had one in any assay.
Listing of entries alongside the reported growth.
Property Measured: growth (%)

Molecule	Measurement Units	Readout Number
CN(C)c1ccc(C=C2C(=O)NC(=O)NC2=O)cc1	%	92.4
COc1ccc(N)cc1OC	%	111
ClC1OC(Cl)(Cl)C(Cl)(Cl)OC1(Cl)Cl (configuration not stated)	%	100
Nc1ccc2c(c1)Cc1cc(N)ccc1-2	%	61.2
Oc1ccc(O)c(Cl)c1	%	112
COCC1OC2OC3C(COC)OC(OC4C(COC)OC(OC5C(COC)OC(OC6C(COC)OC(OC7C(COC)OC(OC8C(COC)OC(OC1C(O)C2O)C(O)C8O)C(O)C7O)C(O)C6O)C(O)C5O)C(O)C4O)C(O)C3O (configuration not stated) (tested in a mixture with another compound)	%	105
CC/C(Cc1ccccc1)=C(\c1ccc(OCCN2CCCC2)cc1)c1ccc(OC(=O)NCc2ccccc2)cc1	%	66.9
C[C@@]12CCCc3coc(c31)C(=O)c1cc3c(cc12)C(=O)C1=C(NCCS1(=O)=O)C3=O	%	11.1
NC(N)=NC(N)=Nc1ccc(Cl)cc1	%	93
Nc1ccc(S(=O)(=O)F)cc1	%	112
CCOC(=O)C1C(C=C(C)C)C1(C)C (configuration not stated)	%	110
CC[C@@H](C)C(=O)O[C@H]1[C@H](O)[C@H]2[C@@H](CN3C[C@@H](C)CC[C@H]3[C@@]2(C)O)[C@@H]2C[C@]34O[C@]5(O)[C@@H](OC(=O)[C@@](C)(O)CC)CC[C@@]3(C)[C@@H]5[C@@H](OC(C)=O)[C@@H](OC(C)=O)[C@H]4[C@@]21O	%	93.7
Cc1cc(Br)c([N+](=O)[O-])cc1[N+](=O)[O-]	%	103
CC[C@H](C)[C@H](NC(=O)[C@H]1CCCCN1C)C(=O)N(C)[C@H](CCc1nc(C(=O)N[C@@H](Cc2ccccc2)C[C@H](C)C(=O)O)cs1)C(C)C	%	47.7
O=C(O)C(F)F	%	101
CC1=CC(=Nc2ccc(N(CCCl)CCCl)cc2)C=C(C)C1=O	%	70.6
N#Cc1ccc(Cl)cc1	%	117
O=[N+]([O-])c1ccc2scc3c4ccccc4nc-3c2c1	%	37.1
COc1ccc2c(c1)c(-c1nc(-c3c[nH]c4ncccc34)cs1)cn2CCCCN1CCOCC1	%	68.4
CCOC(=O)P(=O)(OCC)OCC	%	124
CCCn1cc2c3c(cccc31)[C@H]1C[C@@H](C)CN(C)[C@@H]1C2	%	94.9
COC1C(O)CC(OC2CC(Oc3cc4cc5c(c(O)c4c(O)c3C)C(=O)[C@@H](OC3CC(OC4CC(OC6CC(C)(O)C(OC(C)=O)C(C)O6)C(O)C(C)O4)C(O)C(C)O3)[C@H]([C@H](OC)C(=O)[C@@H](O)[C@@H](C)O)C5)OC(C)C2OC(C)=O)OC1C (some centres not stated)	%	-12.7
O=C1CN2CCC1CC2	%	109
COc1c(O)cc2c(c1OC)-c1ccc(SC)c(=O)cc1C(NC(C)=O)CC2 (configuration not stated)	%	41.9
C[C@]12CC[C@H]3[C@@H](C[C@@H]4SC(Nc5cccc(F)c5)=N[C@@]45CC(=O)CC[C@]35C)[C@@H]1CCC2=O	%	46.4
C[C@]12CCC(=O)C[C@@H]1CC[C@@H]1[C@@H]2CC[C@]2(C)[C@@H](OC(=O)N(CCCl)N=O)CC[C@@H]12	%	69.9
CC[C@H](C)[C@H](NC(=O)[C@H]1CCCCN1C)C(=O)N(C)[C@H](C[C@@H](OC(C)=O)c1nc(C(=O)NC23C4C5C2C2C3C4C52C(=O)OC)cs1)C(C)C (some centres not stated)	%	36.2
COC(=O)CCP(CCC(=O)OC)c1ccccc1	%	93.9
COC12CC3C4=CCOC5CC(=O)N6c7ccccc7C1(CCN2C4)C6C53 (configuration not stated)	%	117
CC(=O)C(N)Cc1ccccc1 (configuration not stated)	%	100
CNC(=O)Oc1ccc(Cl)cc1SSc1cc(Cl)ccc1OC(=O)NC	%	109
O=Cc1cn(Cc2ccccc2)c2ccccc12	%	120

Provenance of the data: PubChem BioAssay (NCI)
